Tested On: USP7 (Homo sapiens, UniProt Q93009)
Sequence (Q93009 whole entry): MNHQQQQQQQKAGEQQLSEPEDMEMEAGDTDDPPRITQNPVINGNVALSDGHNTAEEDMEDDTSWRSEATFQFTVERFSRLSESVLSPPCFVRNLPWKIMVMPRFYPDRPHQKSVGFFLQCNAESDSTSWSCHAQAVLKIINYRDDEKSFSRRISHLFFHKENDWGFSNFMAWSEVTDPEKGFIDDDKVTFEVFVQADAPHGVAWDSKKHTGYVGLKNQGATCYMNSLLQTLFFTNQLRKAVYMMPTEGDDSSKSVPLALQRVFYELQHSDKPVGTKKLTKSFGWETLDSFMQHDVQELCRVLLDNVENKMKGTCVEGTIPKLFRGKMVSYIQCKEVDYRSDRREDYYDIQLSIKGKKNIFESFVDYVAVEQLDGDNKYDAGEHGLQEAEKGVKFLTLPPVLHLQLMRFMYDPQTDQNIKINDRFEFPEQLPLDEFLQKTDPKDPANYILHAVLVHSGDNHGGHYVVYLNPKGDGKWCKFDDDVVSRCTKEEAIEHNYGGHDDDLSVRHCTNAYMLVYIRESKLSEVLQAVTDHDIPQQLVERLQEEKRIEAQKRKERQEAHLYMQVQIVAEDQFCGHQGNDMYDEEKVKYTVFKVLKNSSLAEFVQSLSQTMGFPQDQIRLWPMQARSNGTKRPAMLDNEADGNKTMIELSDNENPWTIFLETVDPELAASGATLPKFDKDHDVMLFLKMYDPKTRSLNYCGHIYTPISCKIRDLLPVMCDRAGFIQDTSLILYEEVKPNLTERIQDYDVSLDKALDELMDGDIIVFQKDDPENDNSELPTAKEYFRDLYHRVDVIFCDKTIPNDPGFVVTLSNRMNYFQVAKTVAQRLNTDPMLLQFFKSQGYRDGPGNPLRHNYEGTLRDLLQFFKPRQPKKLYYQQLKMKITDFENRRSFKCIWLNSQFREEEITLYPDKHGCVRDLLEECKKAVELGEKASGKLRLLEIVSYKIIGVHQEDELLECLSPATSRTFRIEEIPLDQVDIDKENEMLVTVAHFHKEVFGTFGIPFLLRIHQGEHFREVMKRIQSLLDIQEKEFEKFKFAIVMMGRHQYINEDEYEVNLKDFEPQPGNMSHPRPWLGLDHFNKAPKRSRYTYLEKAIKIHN
Readout Name: IC50

Example entries begin here.
C[C@@H](c1cc2nccc(-c3cc(C#N)cc4c3N([C@@H]3CCNC3)CCC4)c2s1)N1C(=O)CCC1=O (single isomer, unassigned) [Example 112d]    > 1000 nM
O=C1CCC(=O)N1Cc1cc2nccc(-c3cc(Cl)cc4c3N([C@H]3CNC(CO)(CO)C3)CCC4)c2s1 (single isomer, unassigned) [Example 181b]    10 to 100 nM
CC1(C)C[C@H](N2CCOc3cc(C#N)cc(-c4ccnc5cc(Cn6ncc(C7CC7)cc6=O)sc45)c32)CN1    < 10 nM
O=C1CCC(=O)N1Cc1cc2nccc(-c3cc(Cl)cc4c3N([C@H]3CNC[C@@H]3F)CCC4)c2s1 (single isomer, unassigned) [Example 96a]    < 10 nM
O=c1c2ccccc2ncn1Cc1cc2nccc(-c3cc(Cl)cc4c3N(C3CNC3)CCC4)c2s1    > 1000 nM

Hi team, please reply with IC50 for each item in this list.
1. O=C1CCC(=O)N1Cc1cc2nccc(-c3cc(Cl)cc4c3N([C@@H]3CN(C[C@@H](O)C(F)(F)F)C5(CCC5)C3)CCC4)c2s1 (single isomer, unassigned) [Example 143b]
2. O=C1CCC(=O)N1Cc1cc2nccc(-c3cc(Cl)cc4c3N(c3cn[nH]c3)C(=O)CC4)c2s1
3. N[C@H]1C[C@H](N2CCCc3cc(Cl)cc(-c4ccnc5cc(CN6C(=O)CCC6=O)sc45)c32)C1 (single isomer, unassigned) [Example 42b]
4. CO[C@@H]1CNC[C@H]1N1CCCc2cc(Cl)cc(-c3ccnc4cc(CN5C(=O)CCC5=O)sc34)c21 (single isomer, unassigned) [Example 97b]
5. O=c1ccn(C2CC2)c(=O)n1Cc1cc2nccc(-c3cc(C(F)(F)F)cc4c3N(C3CNC5(CCC5)C3)CCC4)c2s1 (single isomer, unassigned) [Example 162b]
6. O=c1cc(Oc2ccc(F)cc2)cnn1Cc1cc2nccc(-c3cc(Cl)cc4c3N(C3CNC3)CCC4)c2s1
7. CC1(C)C[C@H](N2CCCc3cc(Cl)cc(-c4ccnc5cc(Cn6c(=O)ccn(CC(F)(F)F)c6=O)sc45)c32)CN1 (single isomer, unassigned) [Example 118b]
8. O=c1cc(N2CCOCC2)cnn1Cc1cc2nccc(-c3cc(Cl)cc4c3N(C3CNC3)CCC4)c2s1

101 to 1000 nM
101 to 1000 nM
10 to 100 nM
< 10 nM
101 to 1000 nM
10 to 100 nM
< 10 nM
10 to 100 nM

* * *

Tested On: USP7 (Homo sapiens, UniProt Q93009);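 further: fluorescence intensity readout of USP7 enzymatic activity, reaction incubated 90 min at room temperature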
Measurement Description: biochemical
Readout Name: IC50

Example entries begin here.
O=C1CCC(=O)N1Cc1cc2nccc(-c3cc(Cl)cc4c3C(N3CCNCC3)CCO4)c2s1 (single isomer, unassigned) [Example 52b]    < 10 nM
N#Cc1cc2c(c(-c3ccnc4cc(CN5C(=O)CCC5=O)sc34)c1)N([C@H]1CCNC1)CCC2 [Example 82]    < 10 nM

Fetch value of IC50 on USP7 (Homo sapiens, UniProt Q93009) for CC(C)(C)c1cnn(Cc2cc3nccc(-c4cc(C#N)cc5c4N([C@@H]4CN[C@@H](CO)C4)C[C@@H]4C[C@H]54)c3s2)c(=O)c1 (single isomer, unassigned) [Example 192b] .
< 10 nM
